Biological target: T1, soluble αVβ6 headpiece, disulfide-linked (αV headpiece residues 1-594 with M400C); β6 headpiece residues 1-474 … (UniProt P06756 31-624; P18564 18-491, Interchain disulfide between αV Cys-400 and β6 Cys-270.)
T1 alpha: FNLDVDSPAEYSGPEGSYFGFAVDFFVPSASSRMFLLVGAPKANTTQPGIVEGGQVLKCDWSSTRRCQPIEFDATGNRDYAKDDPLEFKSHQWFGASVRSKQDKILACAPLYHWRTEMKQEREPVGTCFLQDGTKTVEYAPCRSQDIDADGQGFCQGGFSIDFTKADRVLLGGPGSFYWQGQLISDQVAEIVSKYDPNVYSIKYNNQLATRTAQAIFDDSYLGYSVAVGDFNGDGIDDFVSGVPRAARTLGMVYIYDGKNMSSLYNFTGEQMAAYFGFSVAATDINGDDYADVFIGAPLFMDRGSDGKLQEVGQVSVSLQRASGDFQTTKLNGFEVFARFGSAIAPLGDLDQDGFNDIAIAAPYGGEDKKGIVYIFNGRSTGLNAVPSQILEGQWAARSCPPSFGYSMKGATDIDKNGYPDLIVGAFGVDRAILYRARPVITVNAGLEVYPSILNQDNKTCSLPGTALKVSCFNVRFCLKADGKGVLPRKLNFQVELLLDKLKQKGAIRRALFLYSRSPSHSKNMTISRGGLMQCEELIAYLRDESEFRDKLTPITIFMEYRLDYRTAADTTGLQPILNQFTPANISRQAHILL
T1 beta: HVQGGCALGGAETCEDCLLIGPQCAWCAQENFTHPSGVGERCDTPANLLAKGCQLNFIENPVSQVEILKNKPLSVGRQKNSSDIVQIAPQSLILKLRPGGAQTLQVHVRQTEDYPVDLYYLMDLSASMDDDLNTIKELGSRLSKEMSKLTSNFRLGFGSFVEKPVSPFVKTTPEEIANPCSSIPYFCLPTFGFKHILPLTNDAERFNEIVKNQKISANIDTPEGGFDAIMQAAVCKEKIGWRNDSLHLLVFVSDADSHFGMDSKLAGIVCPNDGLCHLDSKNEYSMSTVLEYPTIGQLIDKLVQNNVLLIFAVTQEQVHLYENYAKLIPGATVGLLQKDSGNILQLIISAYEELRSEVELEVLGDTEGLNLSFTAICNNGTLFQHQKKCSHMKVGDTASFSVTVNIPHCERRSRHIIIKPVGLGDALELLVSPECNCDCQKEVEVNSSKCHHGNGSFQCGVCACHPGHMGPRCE
Experiment: fluorescence anisotropy; pH 8.0
Ends that are not written are not given here. * marks the point of attachment. FITC = O=C1OC2(c3ccc(O)cc3Oc3cc(O)ccc32)c2ccc(NC(=S)*)cc21
propertyMeasured: pKd
Remember the convention: pKd equals -log10 of concentration in molar.

Ask: // pKd lookup, key: {FITC}-GRGDLGRL (also called the probe) [FITC-GRGDLGRL (FITC-pro-TGF-β3 peptide, fluorescence probe)]
Result: 7.07

Source listed as patent US20170183390A1.
